Tested on: PXR:RXRa (NR concentration 270 nM, RXRa partner concentration 90 nM)
Test description: PBM binding z-score (relative to random genomic background probes); higher = stronger binding; sequences stand for … in GC…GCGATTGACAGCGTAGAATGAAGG
I would appreciate it if you labelled entries Met when PBM binding z-score is 1 or higher, otherwise Not met.

Below are worked cases with known answers.
• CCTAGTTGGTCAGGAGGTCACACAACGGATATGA = Met
• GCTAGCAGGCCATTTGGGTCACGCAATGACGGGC = Met
• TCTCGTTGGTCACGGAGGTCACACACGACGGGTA = Met
• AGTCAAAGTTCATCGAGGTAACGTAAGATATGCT = Met

## Input Item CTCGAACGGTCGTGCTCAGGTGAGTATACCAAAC with PBM binding z-score of 1 or above?
## Output Not met

* * *

Reported PBM binding z-score by item:
Test system: PPARg:RXRa 90nM:30nM, anti-RXR (NR concentration 90 nM, RXRa partner concentration 30 nM)
Test description: PBM binding z-score (relative to random genomic background probes); higher = stronger binding; sequences stand for … in GC…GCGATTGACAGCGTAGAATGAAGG
Lab note: record just the number, no unit beside it.

The examples below pair each entry with its known result.
- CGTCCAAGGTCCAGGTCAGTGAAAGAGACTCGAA: -0.258
- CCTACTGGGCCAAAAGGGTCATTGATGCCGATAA: 3.87
- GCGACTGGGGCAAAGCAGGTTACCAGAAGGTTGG: 0.594

## Input For the sequence shown here, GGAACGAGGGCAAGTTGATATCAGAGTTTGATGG , give the reported PBM binding z-score.
## Output 0.552

* * *

System: PPARg:RXRa 30nM:10nM, anti-RXR (NR concentration 30 nM, RXRa partner concentration 10 nM)
Test description: PBM binding z-score (relative to random genomic background probes); higher = stronger binding; sequences stand for … in GC…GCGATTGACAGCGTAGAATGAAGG
Measured quantity: PBM binding z-score
Please state the value as a number alone, without comment.

- TCAGACAGGTGAAGGTAACTCGGGTACGCAGTCG: 3.89
- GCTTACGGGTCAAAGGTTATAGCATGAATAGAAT: 9.01
- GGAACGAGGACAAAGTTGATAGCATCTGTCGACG: 3.91
- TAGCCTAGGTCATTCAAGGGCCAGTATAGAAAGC: 0.523
- CAAACTAGGTCACCGGAAGGGCAAAGTCCGCATG: 4.85

## Input Would you mind telling me what PBM binding z-score value was observed for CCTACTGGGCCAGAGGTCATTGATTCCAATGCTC ?
## Output 9.24

## Input Repeat for the following sequence: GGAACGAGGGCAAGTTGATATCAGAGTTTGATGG
## Output 0.0363

## Input Can you check ACCTCTAGGTAAAAGTTCAGTGAATCCCGAGGAT next?
## Output 6.26

## Input Do the same for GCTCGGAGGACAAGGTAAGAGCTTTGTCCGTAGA please
## Output -0.952

## Input Likewise for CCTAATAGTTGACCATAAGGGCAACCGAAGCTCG ?
## Output 0.117

* * *

Reported PBM binding z-score values follow for various sequences
System: PPARg:RXRa (NR concentration 180 nM, RXRa partner concentration 90 nM)
Test description: PBM binding z-score (relative to random genomic background probes); higher = stronger binding; sequences stand for … in GC…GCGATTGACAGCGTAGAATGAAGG

Worked set:
• GCTCGGAGGACAGGGTCAGAGCTTTGTCCGTAGA = -0.204
• CATACTGGGCCATCAGGTCATTGATATCAACGTT = 2.91
• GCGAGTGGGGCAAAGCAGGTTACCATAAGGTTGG = 0.889
• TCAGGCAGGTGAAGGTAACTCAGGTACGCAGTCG = 0.226
• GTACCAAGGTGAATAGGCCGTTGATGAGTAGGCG = 0.806
• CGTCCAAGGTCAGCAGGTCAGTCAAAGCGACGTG = 4.14
• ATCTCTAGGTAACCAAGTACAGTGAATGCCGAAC = 0.752
• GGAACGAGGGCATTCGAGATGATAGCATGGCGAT = 1.36

## Input Notebook: pull reported PBM binding z-score for PPARg:RXRa (NR concentration 180 nM, RXRa partner concentration 90 nM), entry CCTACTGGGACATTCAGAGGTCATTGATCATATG
## Output 2.3

## Input Now give it for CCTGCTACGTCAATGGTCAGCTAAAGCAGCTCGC too.
## Output -0.37

## Input Same for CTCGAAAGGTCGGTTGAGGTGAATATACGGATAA
## Output 0.944

* * *

In this section, each of the sequences is paired with its reported PBM binding z-score.
System: RARb:RXRa (NR concentration 270 nM, RXRa partner concentration 90 nM)
Test description: PBM binding z-score (relative to random genomic background probes); higher = stronger binding; sequences stand for … in GC…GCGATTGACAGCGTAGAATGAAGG
Lab note: record just the number, no unit beside it.

Field: example entries. Status: answers known.
- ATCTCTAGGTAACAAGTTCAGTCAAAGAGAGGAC: 1.62
- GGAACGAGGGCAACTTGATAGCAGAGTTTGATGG: 2.72
- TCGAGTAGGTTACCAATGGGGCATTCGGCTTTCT: 0.768

## Input Look at this sequence and give its reported PBM binding z-score. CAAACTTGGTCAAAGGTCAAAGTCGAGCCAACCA
## Output 5.11

## Input One more sequence: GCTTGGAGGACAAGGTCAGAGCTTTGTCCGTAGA
## Output 3.48

* * *

Tested on: RARa:RXR (NR concentration 270 nM, RXRa partner concentration 90 nM)
Test description: PBM binding z-score (relative to random genomic background probes); higher = stronger binding; sequences stand for … in GC…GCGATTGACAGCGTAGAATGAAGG
Measured quantity: PBM binding z-score
Lab note: record the figure alone, no unit after it.

- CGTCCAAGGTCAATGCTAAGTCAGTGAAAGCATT: 4.32
- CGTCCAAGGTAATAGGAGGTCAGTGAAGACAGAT: 2.15
- CCTGCTAGGTCAATGGTCATCTAAAGCAGCTCGC: 2.05
- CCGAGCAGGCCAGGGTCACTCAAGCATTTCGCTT: 3.47
- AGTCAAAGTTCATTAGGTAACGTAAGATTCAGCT: 3.77

## Input So what's the measured PBM binding z-score for this one? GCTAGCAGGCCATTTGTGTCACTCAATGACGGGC
## Output -0.532

## Input What about this sequence? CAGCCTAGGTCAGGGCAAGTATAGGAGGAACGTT
## Output 1.19

## Input Lookup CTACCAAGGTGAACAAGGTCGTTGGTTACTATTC
## Output 2.28

## Input Same lookup for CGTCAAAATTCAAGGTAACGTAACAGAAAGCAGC , please.
## Output 0.363

* * *

System: PPARa:RXRa (NR concentration 270 nM, RXRa partner concentration 90 nM)
Test description: PBM binding z-score (relative to random genomic background probes); higher = stronger binding; sequences stand for … in GC…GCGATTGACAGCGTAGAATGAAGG
Listed next: entries and their corresponding PBM binding z-score.
Please reply with the number alone, leaving off any unit.

• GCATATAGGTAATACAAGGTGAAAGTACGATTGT = 1.82
• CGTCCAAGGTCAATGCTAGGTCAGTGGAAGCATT = 4.81
• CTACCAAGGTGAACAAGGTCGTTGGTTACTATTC = 2.45
• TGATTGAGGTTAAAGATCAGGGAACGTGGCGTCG = 4.47
• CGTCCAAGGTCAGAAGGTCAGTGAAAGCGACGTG = 5
• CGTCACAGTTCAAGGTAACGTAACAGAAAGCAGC = 2.46
• CCTTACGGGTCACGAGCTTATAGCACGACGAGCG = 5.9
• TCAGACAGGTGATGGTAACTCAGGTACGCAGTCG = 1.16
• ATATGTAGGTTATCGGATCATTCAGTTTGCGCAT = 3.32
• ACTAGTTGGTCAGCTGAGGTCACAAACAATTCGG = 3.72

## Input // returns reported PBM binding z-score for input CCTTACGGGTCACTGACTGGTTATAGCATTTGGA
## Output 4.99

## Input Now the sequence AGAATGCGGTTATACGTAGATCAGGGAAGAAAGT
## Output -0.235

## Input Can you check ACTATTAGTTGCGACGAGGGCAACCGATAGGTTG next?
## Output 0.201

## Input Same question for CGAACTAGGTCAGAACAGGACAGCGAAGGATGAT please.
## Output 3.3

## Input Lookup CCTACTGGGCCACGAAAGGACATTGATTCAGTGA
## Output 0.738

## Input Now the same for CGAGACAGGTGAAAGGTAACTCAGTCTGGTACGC
## Output 3.47

## Input Okay, and CAGACTAGGTCACGAAAGGTCAAAGTCGAATGAC ?
## Output 6.6

## Input Now consider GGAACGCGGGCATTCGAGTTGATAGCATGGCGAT and answer again.
## Output -1.13

## Input Now the sequence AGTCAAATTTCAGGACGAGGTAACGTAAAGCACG
## Output -0.229

Hello, the source for this data is the supplement of paper PMC6555819, in case you need it.
